B1: HDV Ribozyme (parent)
chain: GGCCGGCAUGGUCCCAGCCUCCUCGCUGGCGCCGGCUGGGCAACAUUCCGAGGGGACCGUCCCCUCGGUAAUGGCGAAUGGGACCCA

variants of: B1; test: self-cleavage, relative activity (ratio to wild type); higher = more cleavage; co-transcriptional
Is self-cleavage at least 0.4? Then y. If not, n.

These solved cases illustrate the format of a correct answer.
| CHANGE | GROUP LABEL |
| --- | --- |
| G6U C75A | n |
| U23C C63A | y |
| G10A A43C | n |
| G1A A71G | n |
| G28C A83C | n |

(Q) Dear colleague, could you confirm whether G10U G53U has self-cleavage at or above 0.4?
(A) y

(Q) Dear colleague, could you confirm whether U27A G40A has self-cleavage at or above 0.4?
(A) y

(Q) Dear colleague, could you confirm whether C22A A43C has self-cleavage at or above 0.4?
(A) n

(Q) Dear colleague, could you confirm whether G17U C66G has self-cleavage at or above 0.4?
(A) y

(Q) Dear colleague, could you confirm whether C4G C22A has self-cleavage at or above 0.4?
(A) n

(Q) Dear colleague, could you confirm whether C7A C62A has self-cleavage at or above 0.4?
(A) y

(Q) Dear colleague, could you confirm whether C41U G59U has self-cleavage at or above 0.4?
(A) y

(Q) Dear colleague, could you confirm whether C26U C41U has self-cleavage at or above 0.4?
(A) y

(Q) Dear colleague, could you confirm whether G38C U46A has self-cleavage at or above 0.4?
(A) n

(Q) Dear colleague, could you confirm whether G25A G55A has self-cleavage at or above 0.4?
(A) n

(Q) Dear colleague, could you confirm whether C15G G31C has self-cleavage at or above 0.4?
(A) n

(Q) Dear colleague, could you confirm whether C49G A70U has self-cleavage at or above 0.4?
(A) y

(Q) Dear colleague, could you confirm whether C62U U79C has self-cleavage at or above 0.4?
(A) y
